Hey, just so you know, these numbers are from the supplement of paper PMC9732359.

- experiment: protein stability index of a GFP-peptide fusion (yeast GPS) (PSI 1-4); higher = more stable; sorted into four equal gates, so the index is relative within each strain
- test.settings: pdr5∆
measurement.type: protein stability index
// no unit, no text: just the number

Below: 2 sequences and their reported protein stability index.
> print(dat)
              item.sequence  reported.result
1  VKKPHRYKPGTVALREI [HHT1]             3.17
2  LETEQLSSELDSNKTLL [SMC2]             3.32

Task: Report protein stability index for RDVSDDVFDTLATYCPR [GRR1] please.
Result: 3.04

Task: Try QPSDVMFNDLNSMDISM [MED2] next.
Result: 2.99

###

Listing of entries alongside the reported protein stability index.
- experiment: protein stability index of a GFP-peptide fusion (yeast GPS) (PSI 1-4); higher = more stable; sorted into four equal gates, so the index is relative within each strain
- test.settings: doa10∆
// no unit, no text: just the number

> print(dat)
              item.sequence         measurement.type  reported.result
1  NVYVLPKNLLKKFIEIS [PRP8]  protein stability index             1.93

Task: Report protein stability index for TKEYLVQNLRSWETKLK [CSN9] please.
Result: 2.96

Task: Try EKGENPSCVYNLIGVIT [UBP6] next.
Result: 2.64

Task: Try EKTLGKSLSKAISTGAK [RPN7] next.
Result: 2.98

Task: Try LVQLFLWDSKELEQLVE [RPN3] next.
Result: 2.64

###

- experiment: protein stability index of a GFP-peptide fusion (yeast GPS) (PSI 1-4); higher = more stable; sorted into four equal gates, so the index is relative within each strain
- test.settings: pdr5∆
Listing of entries alongside the reported protein stability index.

Task: Report protein stability index for VKSEVDVQVDAEEKREA [ITC1] please.
Result: 2.97

Task: Try RRLPMTMFTAEQSELLK [SNF2] next.
Result: 3.08

Task: Try TEAVTQLIGSNIELHSL [PUP1] next.
Result: 3.23

###

- experiment: protein stability index of a GFP-peptide fusion (yeast GPS) (PSI 1-4); higher = more stable; sorted into four equal gates, so the index is relative within each strain
- test.settings: doa10∆
Tag: 1 if measured protein stability index is not below 3, 0 if it is.

Would you please look over these solved cases?
> print(dat)
               item.sequence  qualitative.label
1  DDSFFNETNDKKRNPSK [PRP28]                  1
2   TGWHVDQAIVTETKRLV [DIB1]                  0
3   GKEFGTTPEKPEETPLE [FAS2]                  0
4   DDIVSHQGTPLGSHSSS [REC8]                  1
5   ETPEGQACGLVKNLSLM [RPB2]                  0

Task: protein stability index >= 3 for MKLDDSSKTRNVLNRIQ [ITC1] ?
Result: 0

Task: Try PFDNSTEEKCKNFIESE [YJL039C/NUP192] next.
Result: 1

###

- experiment: protein stability index of a GFP-peptide fusion (yeast GPS) (PSI 1-4); higher = more stable; sorted into four equal gates, so the index is relative within each strain
- test.settings: ubr1∆
Tag: yes (1) if measured protein stability index is not below 3, no (0) if it is.

Would you please look over these solved cases?
> print(dat)
                      item.sequence  qualitative.label
1          GNDTISKFYNMKQPYVF [SSN2]            yes (1)
2         RIFAIAFTRKQANQVKR [RPS1A]             no (0)
3  TCSSDQHIKVFKLDKDT [YGL100W/SEH1]            yes (1)
4         QQQLVNQMKVAPIPKQL [GAL11]             no (0)
5          TLFVRDQDSAVVSSNIK [QCR2]             no (0)

Task: protein stability index >= 3 for GNNKDLKNTMQYLTNFS [RPB4] ?
Result: yes (1)

Task: Try GSNNGFGNKPAGSTGFS [YGR119C/NUP57] next.
Result: no (0)

Task: Try NRLLPNLPEEERKQIHE [GRR1] next.
Result: no (0)

Task: Try KRKLDIGKDTFVTRKSR [PRP8] next.
Result: yes (1)

Task: Try MDFFNLNNNNNNNNTTT [SWI1] next.
Result: no (0)
